Recorded values, source patent US20130116336A1.

Test Protocol: Animal study of alpha-tocotrienol quinone administration: pharmacokinetics in fasted dogs
Experimental Setup: dog, in vivo, po, 10 mg/kg
Readout Type: bioavailability

Exercise: Look up and report measured bioavailability for this entry: CC(C)=CCC/C(C)=C/CC/C(C)=C/CCC(C)(O)CCC1=C(C)C(=O)C(C)=C(C)C1=O (stereo not drawn) [Alpha-tocotrienol quinone]
Key: ~16%

----------
Test Protocol: in vivo
Experimental Setup: female, rat
Readout Type: NOAEL (mg/kg)
Answers are plain numbers, in mg/kg.

Exercise: // fetch NOAEL given entry CC(C)=CCC/C(C)=C/CC/C(C)=C/CCC(C)(O)CCC1=C(C)C(=O)C(C)=C(C)C1=O (stereo not drawn) [Alpha-tocotrienol quinone]
Key: 81

----------
Test Protocol: Animal study of alpha-tocotrienol quinone administration: pharmacokinetics in fasted dogs
Experimental Setup: dog, in vivo, po, 10 mg/kg
Readout Type: Cmax

Exercise: Using known records, supply Cmax for CC(C)=CCC/C(C)=C/CC/C(C)=C/CCC(C)(O)CCC1=C(C)C(=O)C(C)=C(C)C1=O (stereo not shown)
Key: 442 ng/mL

----------
Test Protocol: Animal study of alpha-tocotrienol quinone administration: pharmacokinetics in rats
Experimental Setup: rat, in vivo, 10 mg/kg
Readout Type: Tmax (h)
Answers are plain numbers, in h.

Exercise: Annotate the compound CC(C)=CCC/C(C)=C/CC/C(C)=C/CCC(C)(O)CCC1=C(C)C(=O)C(C)=C(C)C1=O (stereo not shown) with its measured Tmax.
Key: 3.5

----------
Test Protocol: in vivo
Experimental Setup: female, rat, po
Readout Type: NOAEL (mg/kg)
One number for each entry, in mg/kg.

Exercise: Hello, please tell me recorded NOAEL for this one: CC(C)=CCC/C(C)=C/CC/C(C)=C/CCC(C)(O)CCC1=C(C)C(=O)C(C)=C(C)C1=O (stereo not drawn) [Alpha-tocotrienol quinone]
Key: 500

----------
Test Protocol: Animal study of alpha-tocotrienol quinone administration: pharmacokinetics in rats
Experimental Setup: rat, in vivo, 10 mg/kg
Readout Type: bioavailability

Exercise: Provide bioavailability value for the following compound: CC(C)=CCC/C(C)=C/CC/C(C)=C/CCC(C)(O)CCC1=C(C)C(=O)C(C)=C(C)C1=O (stereo not shown)
Key: ~90%

----------
Test Protocol: Animal study of alpha-tocotrienol quinone administration: pharmacokinetics in fasted dogs
Experimental Setup: dog, in vivo, po, 10 mg/kg
Readout Type: Tmax (h)
Answers are plain numbers, in h.

Exercise: // fetch Tmax given entry CC(C)=CCC/C(C)=C/CC/C(C)=C/CCC(C)(O)CCC1=C(C)C(=O)C(C)=C(C)C1=O (stereo not shown)
Key: 2.8
